This collection of values is drawn from patent US9834571B2.

# targetEntity: BaF3 cells expressing the target EGFR mutations (Homo sapiens, UniProt P00533, T790M, cells depend on it, form not given)
# Construct: IC50, BAF3 EGFR DEL T790M PURO POOL; other: BAF3 EGFR DEL T790M PURO POOL cells, MTT; other: BAF3 EGFR DEL T790M PURO POOL cells; MTT
# Sequence (P00533 with tags, fused parts or gaps DEL746-750/T790M, form open): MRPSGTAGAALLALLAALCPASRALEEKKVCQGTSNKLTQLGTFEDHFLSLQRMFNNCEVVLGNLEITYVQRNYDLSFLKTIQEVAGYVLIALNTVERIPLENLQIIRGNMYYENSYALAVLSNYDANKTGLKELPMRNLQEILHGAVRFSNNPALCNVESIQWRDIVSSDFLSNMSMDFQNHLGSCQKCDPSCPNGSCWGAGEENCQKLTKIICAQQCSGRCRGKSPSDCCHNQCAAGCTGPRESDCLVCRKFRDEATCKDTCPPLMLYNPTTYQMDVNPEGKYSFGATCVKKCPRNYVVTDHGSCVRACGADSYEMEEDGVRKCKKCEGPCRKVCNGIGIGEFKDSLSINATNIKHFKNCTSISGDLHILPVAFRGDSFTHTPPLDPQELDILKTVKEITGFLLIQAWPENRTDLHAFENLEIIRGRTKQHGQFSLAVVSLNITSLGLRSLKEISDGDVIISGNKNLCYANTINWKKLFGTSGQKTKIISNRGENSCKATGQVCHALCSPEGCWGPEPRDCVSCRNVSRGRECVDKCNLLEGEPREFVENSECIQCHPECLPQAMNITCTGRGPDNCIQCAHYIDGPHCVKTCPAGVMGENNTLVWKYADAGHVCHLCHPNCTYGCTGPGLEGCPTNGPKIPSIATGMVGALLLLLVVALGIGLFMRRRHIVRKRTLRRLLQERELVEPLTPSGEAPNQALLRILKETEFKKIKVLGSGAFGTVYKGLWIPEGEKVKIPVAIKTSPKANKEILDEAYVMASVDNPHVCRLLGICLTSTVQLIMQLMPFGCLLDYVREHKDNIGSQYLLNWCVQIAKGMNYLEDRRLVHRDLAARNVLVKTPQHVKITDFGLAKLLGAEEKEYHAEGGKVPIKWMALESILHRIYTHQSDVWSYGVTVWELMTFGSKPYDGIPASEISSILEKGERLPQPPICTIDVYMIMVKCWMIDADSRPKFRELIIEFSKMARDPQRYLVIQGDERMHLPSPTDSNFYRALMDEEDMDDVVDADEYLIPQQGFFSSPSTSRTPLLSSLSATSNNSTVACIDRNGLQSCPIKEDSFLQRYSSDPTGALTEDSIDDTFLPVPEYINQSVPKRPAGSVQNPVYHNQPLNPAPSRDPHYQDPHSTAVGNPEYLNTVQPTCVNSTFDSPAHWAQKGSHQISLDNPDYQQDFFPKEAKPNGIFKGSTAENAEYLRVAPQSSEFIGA
# procedureSummary: Antiproliferative activity (MTT) against BaF3 cells expressing the target EGFR mutations
# Type: cell-based
# conditionDetails: BAF3 EGFR DEL T790M PURO POOL cells, read-out: IC50, BAF3 EGFR DEL T790M PURO POOL
readout: GI50

Some molecules with known GI50 results, for comparison:
COCC#CC(=O)Nc1cc(Nc2ncc(Cl)c(Nc3ccccc3P(C)(C)=O)n2)c(OC)cc1N1CCC(N(C)C)C1 (stereo not drawn): < 50 nM
C=C(CN1CCC(N2CCOCC2)CC1)C(=O)Nc1ccc(OC)c(Nc2ncc(Cl)c(Nc3ccccc3P(C)(C)=O)n2)c1: < 50 nM

From here, focus on the item given below.
The reported GI50 of the molecule C=CC(=O)Nc1cc(Nc2ncc(Cl)c(Nc3ccccc3P(C)(C)=O)n2)c(OC)cc1N1CCC(N(C)C)C1 (stereo not drawn) was < 50 nM
